experimental_system: recombinant human PAD2 (human, UniProt Q9Y2J8 1-665)
Sequence (Q9Y2J8 whole entry): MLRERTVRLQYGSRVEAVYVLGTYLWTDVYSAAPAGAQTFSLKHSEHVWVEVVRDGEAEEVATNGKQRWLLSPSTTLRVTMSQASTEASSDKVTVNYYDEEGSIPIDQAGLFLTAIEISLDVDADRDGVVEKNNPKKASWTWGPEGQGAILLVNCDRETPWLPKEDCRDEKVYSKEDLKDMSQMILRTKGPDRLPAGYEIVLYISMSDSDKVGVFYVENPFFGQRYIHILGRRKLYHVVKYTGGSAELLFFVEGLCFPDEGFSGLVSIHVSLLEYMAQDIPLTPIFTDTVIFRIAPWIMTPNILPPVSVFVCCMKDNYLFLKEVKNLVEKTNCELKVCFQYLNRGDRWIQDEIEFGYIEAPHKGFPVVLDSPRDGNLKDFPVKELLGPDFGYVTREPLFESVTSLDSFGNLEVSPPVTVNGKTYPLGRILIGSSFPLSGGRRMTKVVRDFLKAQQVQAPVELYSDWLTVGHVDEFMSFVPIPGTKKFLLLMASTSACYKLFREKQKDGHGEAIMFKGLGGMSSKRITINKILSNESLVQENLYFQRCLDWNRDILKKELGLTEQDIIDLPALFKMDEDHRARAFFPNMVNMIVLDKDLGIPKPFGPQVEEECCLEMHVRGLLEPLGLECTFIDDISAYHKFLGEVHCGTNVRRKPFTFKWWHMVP
experiment_notes: cell-based or functional assay
Square brackets hold non-standard residues; d marks the D form. Orn(fluoroacetimidoyl) = N=C(CF)NCCC[C@H](N)C(=O)O
Known conversion of 0708-30 by PAD2, 10 µM inhibitor (0 µM: 68) of a selection of binders
reported_endpoint: conversion of 0708-30 by PAD2, 10 µM inhibitor (0 µM: 68)

binder	observed_value
Ac-KHD[Orn(fluoroacetimidoyl)]DFL-NH2 (SMILES CC(=O)N[C@@H](CCCCN)C(=O)N[C@@H](Cc1c[nH]cn1)C(=O)N[C@@H](CC(=O)O)C(=O)N[C@@H](CCCNC(=N)CF)C(=O)N[C@@H](CC(=O)O)C(=O)N[C@@H](Cc1ccccc1)C(=O)N[C@@H](CC(C)C)C(N)=O) [0748-25FA]	47%
Ac-KFD[Orn(fluoroacetimidoyl)]DFI-NH2 (SMILES CC[C@H](C)[C@H](NC(=O)[C@H](Cc1ccccc1)NC(=O)[C@H](CC(=O)O)NC(=O)[C@H](CCCNC(=N)CF)NC(=O)[C@H](CC(=O)O)NC(=O)[C@H](Cc1ccccc1)NC(=O)[C@H](CCCCN)NC(C)=O)C(N)=O) [0743-58FA]	33%
Ac-HFD[Orn(fluoroacetimidoyl)]EWI-NH2 (SMILES CC[C@H](C)[C@H](NC(=O)[C@H](Cc1c[nH]c2ccccc12)NC(=O)[C@H](CCC(=O)O)NC(=O)[C@H](CCCNC(=N)CF)NC(=O)[C@H](CC(=O)O)NC(=O)[C@H](Cc1ccccc1)NC(=O)[C@H](Cc1c[nH]cn1)NC(C)=O)C(N)=O) [0748-01FA]	67%

Values were extracted from patent US20110142868A1.
